Below is a list of entries, each paired with its recorded activation value.
molecular target: Neuropeptide Y receptor type 1 (Homo sapiens); assay: human Y1 receptor agonism – cell-based, fluorescence, counter-screen for NPY-Y1 potentiator project, confirmation (AID 1697); conditions: HEK293 Y1-CNGC, membrane potential fluorescence, agonist mode; at 3.6 µM; stronger effect = higher value;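 note: cells challenged with isoproterenol plus Ro 20-1724 with no NPY in test wells; Y1 agonism lowers isoproterenol-driven cAMP and reduces probe fluorescence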
The other results are listed elsewhere or left out.
Please state the figure in %; there is no need to write the unit.

Need activation, item COC(=O)c1sc(-c2ccc(C(C)(C)C)cc2)cc1NC(=O)/C=C/C(=O)O
26.9

Which value of activation has been reported for CC1=C/C(=N\OS(=O)(=O)c2ccccc2)C=CC1=O in the records?
14.2

###

biological target: Neuropeptide Y receptor type 1 (Homo sapiens); assay: human Y1 receptor agonism – cell-based, fluorescence, counter-screen for NPY-Y1 potentiator project, confirmation (AID 1697); details: HEK293 Y1-CNGC, membrane potential fluorescence, agonist mode; at 3.6 µM; stronger effect = higher value;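 note: cells challenged with isoproterenol plus Ro 20-1724 with no NPY in test wells; Y1 agonism lowers isoproterenol-driven cAMP and reduces probe fluorescence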
This is one part of the list.
QUANTITY KIND: activation (%)
Return type: number; implicit unit %.

Some entries whose results are on file:
COMPOUND	TARGET OR TEST SYSTEM	EXPERIMENTAL RESULT
Cc1ccccc1NCC(=O)N/N=C\c1ccc([N+](=O)[O-])s1	Neuropeptide Y receptor type 1 (Homo sapiens)	40
COCCn1nnnc1C(c1ccccc1Cl)N1CCN(c2ccccc2OC)CC1 (stereo unspecified)	Neuropeptide Y receptor type 1 (Homo sapiens)	-0.37
O=C(Nc1ccc2c(c1)CCC2)c1cccc(S(=O)(=O)Nc2ccccc2Cl)c1	Neuropeptide Y receptor type 1 (Homo sapiens)	3.19
O=C(c1cccs1)N1CCN(C(=O)N2CCOCC2)CC1	Neuropeptide Y receptor type 1 (Homo sapiens)	-8.38
CN1C(=O)c2ccccc2C(C(=O)NCCCN2CCCC2)C1c1c[nH]c2ccccc12 (stereo unspecified)	Neuropeptide Y receptor type 1 (Homo sapiens)	-3
CSc1nc(-c2ccco2)nn1C(=O)c1ccccc1Cl	Neuropeptide Y receptor type 1 (Homo sapiens)	28.5

# query: activation of entry CCn1c2ccccc2c2cc(NC(=O)Nc3ccc([N+](=O)[O-])cc3C)ccc21
11.8

Query: activation; subject: O=C1/C(=C/c2coc3ccc(O)cc3c2=O)SC(=S)N1c1ccccc1
16.8

Item under review: Cc1cccc(OCC(O)CN2CCN(CCN3C(=O)c4cccc5cccc(c45)C3=O)CC2)c1C (stereo unspecified) . Reported activation?
45.1

Quick one: activation for O=C(Nc1ccccc1C(F)(F)F)c1cc(-c2ccc(O)cc2)on1 ?
9.5

Recorded activation of COC(=O)c1ccc(NC(=O)CN(c2ccc(C)cc2)S(=O)(=O)c2c(C)n[nH]c2C)cc1 , please.
45.3

Values from PubChem BioAssay AID1697
